meta.source: PubChem BioAssay (NCI)

# Tested on: HCC-2998 colon
# ASSAY SUMMARY: NCI-60 one-dose screen, 48 h (100 = growth as untreated, 0 = no growth, -100 = all killed)
# EXPERIMENTAL CONTEXT: 10 µM unless noted
The panel holds about 83,000 compounds, 20% with a hit somewhere; the sample as a whole holds those more often.
READOUT: growth (%)

1) COc1ccc(C(C)=O)c(OC)c1
105
2) CN[C@@H](C)C(=O)N[C@H]1CCS[C@H]2CC(C)(C)[C@@H](C(=O)N[C@H]3c4ccccc4C[C@H]3OCC#CC#CCO[C@@H]3Cc4ccccc4[C@@H]3NC(=O)[C@H]3N4C(=O)[C@@H](NC(=O)[C@H](C)NC)CCS[C@H]4CC3(C)C)N2C1=O
90.2
3) CCOC(=O)C1=C(CCl)NC(=O)NC1c1ccc2c(c1)OCO2 (stereo not drawn)
83.1
